Entry source: patent US10533021B2

Method: Solubility (water and formulation solvents)
Type: physicochemical
Assay setup: water
Consider the following compounds and their measured solubility readings.

OB1OCc2cc(Cl)ccc21 = > 100 µg/mL

Endpoint output: solubility of OB1OCc2cc(F)ccc21 . Value?
> 100 µg/mL
